Provide the reported Zebrafish LD50 of each item.
# System: wild AB zebrafish
# assay.comment: Zebrafish toxicity test
# Assay type: in vivo
# condition.notes: intravenous injection, 72 hours of treatment, samples in phosphate form

# annotated cases, reported Zebrafish LD50 shown
// query Zebrafish LD50 for CNC(CC(C)C)C(=O)NC1C(=O)NC(CC(N)=O)C(=O)NC2C(=O)NC3C(=O)NC(C(=O)NC(C(=O)O)c4cc(O)cc(O)c4-c4cc3ccc4O)C(OC3CC(C)(N)C(O)C(C)O3)c3ccc(c(Cl)c3)Oc3cc2cc(c3OC2OC(CO)C(O)C(O)C2OC2CC(C)(NCc3ccc(OCCc4ccc(OC)cc4)cc3)C(O)C(C)O2)Oc2ccc(cc2Cl)C1O (stereo not drawn) ?
// result 188 ng/tail

// query Zebrafish LD50 for CNC(CC(C)C)C(=O)NC1C(=O)NC(CC(N)=O)C(=O)NC2C(=O)NC3C(=O)NC(C(=O)NC(C(=O)O)c4cc(O)cc(O)c4-c4cc3ccc4O)C(OC3CC(C)(N)C(O)C(C)O3)c3ccc(c(Cl)c3)Oc3cc2cc(c3OC2OC(CO)C(O)C(O)C2OC2CC(C)(NCc3ccc(OCc4ccc(Cl)cc4)cc3)C(O)C(C)O2)Oc2ccc(cc2Cl)C1O (stereo not drawn) ?
// result 180 ng/tail

***
// query Zebrafish LD50 for CNC(CC(C)C)C(=O)NC1C(=O)NC(CC(N)=O)C(=O)NC2C(=O)NC3C(=O)NC(C(=O)NC(C(=O)O)c4cc(O)cc(O)c4-c4cc3ccc4O)C(OC3CC(C)(N)C(O)C(C)O3)c3ccc(c(Cl)c3)Oc3cc2cc(c3OC2OC(CO)C(O)C(O)C2OC2CC(C)(NCc3ccc(OCCc4ccc(C(F)(F)F)cc4)cc3)C(O)C(C)O2)Oc2ccc(cc2Cl)C1O (stereo not drawn) ?
// result 99 ng/tail

====

# System: wild AB zebrafish
# assay.comment: Zebrafish toxicity test
# Format: in vivo
# condition.notes: intravenous injection, 72 hours of treatment, samples in phosphate form
# Experimental: A zebrafish toxicity test of the compounds in Table 1 is also tested. Randomly select wild AB zebrafish in a six-well plate, and inject each test sample at a dose of 50, 100, 150, 200, and 250 ng/tail intravenously. At the same time, a normal control group and a solvent control group (aqueous phosphoric acid) are set; During this experiment, the death of zebrafish is observed and recorded every day and the dead fish are removed. After 72 hours of treatment, the death of zebrafish is counted. […]
Provide the reported Zebrafish LD50 of each item.
One number for each entry, in ng/tail.

// query Zebrafish LD50 for CNC(CC(C)C)C(=O)NC1C(=O)NC(CC(N)=O)C(=O)NC2C(=O)NC3C(=O)NC(C(=O)NC(C(=O)O)c4cc(O)cc(O)c4-c4cc3ccc4O)C(OC3CC(C)(N)C(O)C(C)O3)c3ccc(c(Cl)c3)Oc3cc2cc(c3OC2OC(CO)C(O)C(O)C2OC2CC(C)(NCc3ccc(NCCc4ccc(C(F)(F)F)cc4)cc3)C(O)C(C)O2)Oc2ccc(cc2Cl)C1O (centres unmarked) [Compound 22] ?
// result 142

Now for the compound whose Zebrafish LD50 we want.
// query Zebrafish LD50 for CNC(CC(C)C)C(=O)NC1C(=O)NC(CC(N)=O)C(=O)NC2C(=O)NC3C(=O)NC(C(=O)NC(C(=O)O)c4cc(O)cc(O)c4-c4cc3ccc4O)C(OC3CC(C)(N)C(O)C(C)O3)c3ccc(c(Cl)c3)Oc3cc2cc(c3OC2OC(CO)C(O)C(O)C2OC2CC(C)(NCc3ccc(OCc4ccc(C)cc4)cc3)C(O)C(C)O2)Oc2ccc(cc2Cl)C1O (centres unmarked) [Compound 4] ?
// result 101

====

Provide the reported Zebrafish LD50 of each item.
# Test system: wild AB zebrafish
# assay.comment: Zebrafish toxicity test
# Type: in vivo
# condition.notes: intravenous injection, 72 hours of treatment, samples in phosphate form
Give bare numbers, in ng/tail.

# annotated cases, reported Zebrafish LD50 shown
// query Which measured Zebrafish LD50 belongs to CNC(CC(C)C)C(=O)NC1C(=O)NC(CC(N)=O)C(=O)NC2C(=O)NC3C(=O)NC(C(=O)NC(C(=O)O)c4cc(O)cc(O)c4-c4cc3ccc4O)C(OC3CC(C)(N)C(O)C(C)O3)c3ccc(c(Cl)c3)Oc3cc2cc(c3OC2OC(CO)C(O)C(O)C2OC2CC(C)(NCc3ccc(NCc4ccccc4)cc3)C(O)C(C)O2)Oc2ccc(cc2Cl)C1O (stereo not drawn) , tested on wild AB zebrafish?
// result 139

// query Which measured Zebrafish LD50 belongs to CNC(CC(C)C)C(=O)NC1C(=O)NC(CC(N)=O)C(=O)NC2C(=O)NC3C(=O)NC(C(=O)NC(C(=O)O)c4cc(O)cc(O)c4-c4cc3ccc4O)C(OC3CC(C)(N)C(O)C(C)O3)c3ccc(c(Cl)c3)Oc3cc2cc(c3OC2OC(CO)C(O)C(O)C2OC2CC(C)(NCc3ccc(NCc4ccc(C)cc4)cc3)C(O)C(C)O2)Oc2ccc(cc2Cl)C1O (stereo not drawn) , tested on wild AB zebrafish?
// result 128

Look at each compound and report its Zebrafish LD50.
1. CNC(CC(C)C)C(=O)NC1C(=O)NC(CC(N)=O)C(=O)NC2C(=O)NC3C(=O)NC(C(=O)NC(C(=O)O)c4cc(O)cc(O)c4-c4cc3ccc4O)C(OC3CC(C)(N)C(O)C(C)O3)c3ccc(c(Cl)c3)Oc3cc2cc(c3OC2OC(CO)C(O)C(O)C2OC2CC(C)(NCc3ccc(OCCc4ccc(Cl)cc4)cc3)C(O)C(C)O2)Oc2ccc(cc2Cl)C1O (stereo not drawn)
2. CNC(CC(C)C)C(=O)NC1C(=O)NC(CC(N)=O)C(=O)NC2C(=O)NC3C(=O)NC(C(=O)NC(C(=O)O)c4cc(O)cc(O)c4-c4cc3ccc4O)C(OC3CC(C)(N)C(O)C(C)O3)c3ccc(c(Cl)c3)Oc3cc2cc(c3OC2OC(CO)C(O)C(O)C2OC2CC(C)(NCc3ccc(OCCc4ccccc4)cc3)C(O)C(C)O2)Oc2ccc(cc2Cl)C1O (stereo not drawn)
3. CNC(CC(C)C)C(=O)NC1C(=O)NC(CC(N)=O)C(=O)NC2C(=O)NC3C(=O)NC(C(=O)NC(C(=O)O)c4cc(O)cc(O)c4-c4cc3ccc4O)C(OC3CC(C)(N)C(O)C(C)O3)c3ccc(c(Cl)c3)Oc3cc2cc(c3OC2OC(CO)C(O)C(O)C2OC2CC(C)(NCc3ccc(OCCc4cccc(Br)c4)cc3)C(O)C(C)O2)Oc2ccc(cc2Cl)C1O (stereo not drawn)

// result
150
163
113

// query Which measured Zebrafish LD50 belongs to CNC(CC(C)C)C(=O)NC1C(=O)NC(CC(N)=O)C(=O)NC2C(=O)NC3C(=O)NC(C(=O)NC(C(=O)O)c4cc(O)cc(O)c4-c4cc3ccc4O)C(OC3CC(C)(N)C(O)C(C)O3)c3ccc(c(Cl)c3)Oc3cc2cc(c3OC2OC(CO)C(O)C(O)C2OC2CC(C)(NCc3ccc(NCCCc4ccc(Cl)cc4)cc3)C(O)C(C)O2)Oc2ccc(cc2Cl)C1O (stereo not drawn) , tested on wild AB zebrafish?
// result 97

====

# Tested on: Clinical isolates 07-W3-45 (VRE)
# assay.comment: In vitro antibacterial activity (MIC) against VRE
# Format: cell-based, Vancomycin-resistant Enterococcus
# condition.notes: clinically isolated drug-resistant strain 07-W3-45 from Shanghai Huashan Hospital
Provide the reported MIC Clinical isolates 07-W3-45 (VRE) of each item.
Numbers only, in µg/mL.

# annotated cases, reported MIC Clinical isolates 07-W3-45 (VRE) shown
// query MIC Clinical isolates 07-W3-45 (VRE) for CNC(CC(C)C)C(=O)NC1C(=O)NC(CC(N)=O)C(=O)NC2C(=O)NC3C(=O)NC(C(=O)NC(C(=O)O)c4cc(O)cc(O)c4-c4cc3ccc4O)C(OC3CC(C)(N)C(O)C(C)O3)c3ccc(c(Cl)c3)Oc3cc2cc(c3OC2OC(CO)C(O)C(O)C2OC2CC(C)(NCc3ccc(OCCc4ccc(OC)cc4)cc3)C(O)C(C)O2)Oc2ccc(cc2Cl)C1O (stereo not drawn) ?
// result 16

// query MIC Clinical isolates 07-W3-45 (VRE) for CNC(CC(C)C)C(=O)NC1C(=O)NC(CC(N)=O)C(=O)NC2C(=O)NC3C(=O)NC(C(=O)NC(C(=O)O)c4cc(O)cc(O)c4-c4cc3ccc4O)C(OC3CC(C)(N)C(O)C(C)O3)c3ccc(c(Cl)c3)Oc3cc2cc(c3OC2OC(CO)C(O)C(O)C2OC2CC(C)(NCc3ccc(OCc4ccccc4)cc3)C(O)C(C)O2)Oc2ccc(cc2Cl)C1O (stereo not drawn) ?
// result 2

Now for the compound whose MIC Clinical isolates 07-W3-45 (VRE) we want.
// query MIC Clinical isolates 07-W3-45 (VRE) for CNC(CC(C)C)C(=O)NC1C(=O)NC(CC(N)=O)C(=O)NC2C(=O)NC3C(=O)NC(C(=O)NC(C(=O)O)c4cc(O)cc(O)c4-c4cc3ccc4O)C(OC3CC(C)(N)C(O)C(C)O3)c3ccc(c(Cl)c3)Oc3cc2cc(c3OC2OC(CO)C(O)C(O)C2OC2CC(C)(NCc3ccc(OCCc4ccc(Cl)cc4)cc3)C(O)C(C)O2)Oc2ccc(cc2Cl)C1O (stereo not drawn) ?
// result 1
